Data provenance: patent US20220296595A1

Target: CDK6/CyclinD3 (Homo sapiens, UniProt Q00534)
Construct: purchased Carna 04-107
Sequence (Q00534 whole entry): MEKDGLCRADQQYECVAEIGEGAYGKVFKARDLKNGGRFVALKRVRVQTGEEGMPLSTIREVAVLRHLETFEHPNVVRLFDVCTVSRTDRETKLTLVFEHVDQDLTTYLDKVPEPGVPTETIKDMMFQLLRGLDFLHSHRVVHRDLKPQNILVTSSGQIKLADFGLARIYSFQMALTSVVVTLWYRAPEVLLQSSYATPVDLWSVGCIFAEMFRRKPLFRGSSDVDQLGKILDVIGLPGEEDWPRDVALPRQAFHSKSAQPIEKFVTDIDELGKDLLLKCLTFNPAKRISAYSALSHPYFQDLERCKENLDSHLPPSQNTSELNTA
Sequence (P30281 whole entry partner): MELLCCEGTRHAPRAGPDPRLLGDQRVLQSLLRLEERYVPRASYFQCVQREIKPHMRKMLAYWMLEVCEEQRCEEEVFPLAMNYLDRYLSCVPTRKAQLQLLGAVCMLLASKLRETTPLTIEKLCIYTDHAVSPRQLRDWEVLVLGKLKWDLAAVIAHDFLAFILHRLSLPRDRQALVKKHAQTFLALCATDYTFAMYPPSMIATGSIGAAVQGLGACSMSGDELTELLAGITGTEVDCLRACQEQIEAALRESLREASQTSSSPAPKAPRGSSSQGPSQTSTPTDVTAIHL
Assay: Assay for inhibition of CDK6/CyclinD3 (Caliper microfluidic kinase assay)
Type: biochemical
Conditions: CDK6/CyclinD3, 300 μM ATP
pIC50: −log10 of the molar value.
Catalogue of compounds with associated pIC50
quantity-name: pIC50

* CC(C)c1cnn2ccc(-c3ccnc(Nc4ccc(C(=O)N(C)C)cc4)n3)cc12 [compound 167] | 7.00 to 8.00
* CC(C)(C)c1cnn2ccc(-c3ccnc(Nc4ccc(N5CCNCCC5=O)cn4)n3)cc12 [compound 197] | 7.00 to 8.00
* COc1nc(-c2nc(Nc3ccc(N4CCC(N(C)C)CC4=O)cn3)ncc2F)cc2c1nc(C)n2C(C)C (single isomer, unassigned) [Example 62-1] | 7.00 to 8.00
* CNC1CCCN(c2ccc(Nc3nccc(-c4ccn5nc(C)c(C(C)C)c5c4)n3)cc2)C1=O (stereo not drawn) [compound 217] | > 8.00
* O=C1CCNCCN1c1ccc(Nc2ncc(F)c(-c3ccn4ncc(C5CC5)c4c3)n2)nc1 [compound 195] | 7.00 to 8.00
* CCN1CCN(Cc2ccc(Nc3ncc(F)c(-c4ccn5ncc(C(C)C)c5c4)n3)nc2)CC1 [compound 22] | 7.00 to 8.00
* COc1nc(-c2nc(Nc3ccc(N4CCNCC4)cn3)ncc2F)cc2c1nc(C)n2C(C)C [Synthetic Example 106] | 7.00 to 8.00
* CCN1CCN(c2ccc(Nc3ncc(F)c(-c4cc5c(nc(C)n5C(C)C)c(OC)n4)n3)nc2)C(=O)C1 [Synthetic Example 128] | 7.00 to 8.00
* CC(C)c1cnn2ccc(-c3nc(Nc4ccc(N5CCOCC5=O)cn4)ncc3F)cc12 [compound 2] | 7.00 to 8.00
* CCN1CCN(c2ccc(Nc3nccc(-c4cc5c(ncn5C(C)C)c(OC)n4)n3)nc2)C(=O)C1 [compound 134] | 7.00 to 8.00
* Cc1nc2c(F)nc(-c3ccnc(Nc4ccc(N5CCCC(N(C)C)C5=O)cn4)n3)cc2n1C(C)C (stereo not drawn) [Synthetic Example 301] | > 8.00
* CC(C)n1cnc2c(F)nc(-c3ccnc(Nc4ccc(N5CCCNC5=O)cn4)n3)cc21 [compound 275] | > 8.00
* CC(C)n1cnc2c(F)nc(-c3ccnc(Nc4ccc(S(N)(=O)=O)cc4)n3)cc21 [compound 297] | 7.00 to 8.00
* CC(C)c1cnn2ccc(-c3nc(Nc4ccc(N5CCOCC5=O)c(F)c4)ncc3F)cc12 [compound 26] | 7.00 to 8.00
* CC(C)c1cnn2ccc(-c3nc(Nc4ccc(CN5CCOCC5=O)cn4)ncc3F)cc12 [compound 15] | 6.00 to 7.00

###

Target: CDK4/CyclinD1 (Homo sapiens)
Construct: purchased Thermofisher PR8064A
Assay: Assay for inhibition of CDK4/CyclinD1 (Caliper microfluidic kinase assay)
Assay type: biochemical
Settings: CDK4/CyclinD1
# IC50 listing for each entry below
quantity-name: IC50

* COc1nc(-c2nc(Nc3ccc(N4CCN(C)CC4)cn3)ncc2F)cc2c1nc(C)n2C(C)C | 10 to 100 nM
* COc1nc(-c2ccnc(Nc3ccc(N4CCC(N5CC(F)C5)CC4=O)cn3)n2)cc2c1ncn2C(C)C (stereo not drawn) | < 10 nM
* COc1nc(-c2ccnc(Nc3ccc(N4CCOC(C)C4)cn3)n2)cc2c1ncn2C(C)C (stereo not drawn) | 10 to 100 nM
* CCn1cnc2c(OC)nc(-c3nc(Nc4ccc(N5CCOCC5=O)cn4)ncc3F)cc21 | 10 to 100 nM
* CCN1CCN(c2ccc(Nc3ncc(F)c(-c4cc5c(nc(C)n5C(C)C)c(OC)n4)n3)nc2)CC1=O | 10 to 100 nM
* COc1nc(-c2nc(Nc3ccc(N4CCOCC4=O)cn3)ncc2F)cc2c1nc(C)n2C(C)CO (stereo not drawn) | 10 to 100 nM
* CC(C)n1cnc2c(OC(F)F)nc(-c3ccnc(Nc4ccc(N5CCOCC5=O)cn4)n3)cc21 | < 10 nM
* COc1nc(-c2nc(Nc3ccc(N4CCOCC4=O)cn3)ncc2C)cc2c1nc(C)n2C(C)C | < 10 nM
* COc1nc(-c2ccnc(Nc3ccc(CN4CCC(F)C4)cn3)n2)cc2c1ncn2C(C)C (stereo not drawn) | 10 to 100 nM
* COc1nc(-c2nc(Nc3ccc(N4CCCOCC4=O)cn3)ncc2F)cc2c1nc(C)n2C(C)C | < 10 nM
* CC(C)n1cnc2c(OC(F)F)nc(-c3ccnc(Nc4ccc(N5CCC(N(C)C)CC5=O)cn4)n3)cc21 (stereo not drawn) | < 10 nM
* COc1nc(-c2ccnc(Nc3ccc(C(=O)N4CCC(NC5CC5)C4)cc3)n2)cc2c1ncn2C(C)C (stereo not drawn) | < 10 nM
* COc1nc(-c2nc(Nc3ccc(N4CCOC4=O)cn3)ncc2F)cc2c1nc(C)n2C(C)C | 10 to 100 nM
* CCN1CC2CC1CN2c1ccc(Nc2nccc(-c3cc4c(ncn4C(C)C)c(OC)n3)n2)nc1 (stereo not drawn) | < 10 nM
* COc1nc(-c2ccnc(Nc3ccc(N4CC5CC4CO5)cn3)n2)cc2c1ncn2C(C)C (stereo not drawn) | 10 to 100 nM
* COc1nc(-c2nc(Nc3ccc(N4CCOCC4=O)cn3)ncc2F)cc2c1nc(C)n2C(C)C | < 10 nM
* COc1nc(-c2ccnc(Nc3ccc(CN4CCC(F)(F)C4)cn3)n2)cc2c1ncn2C(C)C | 10 to 100 nM
* COc1nc(-c2nc(Nc3ccc(N4CCCCC4=O)cn3)ncc2F)cc2c1nc(C)n2C(C)C | < 10 nM

###

A collection of compounds and their measured IC50
Biological target: CDK2/CyclinE1 (Homo sapiens)
Construct: purchased SignalChem C29-18G
Assay: Assay for inhibition of CDK2/CyclinE1 (Caliper microfluidic kinase assay)
Assay type: biochemical
Conditions: CDK2/CyclinE1; read-out: CDK2 IC50
quantity-name: IC50

• COc1nc(-c2nc(Nc3ccc(N4CCCCC4=O)cn3)ncc2F)cc2c1nc(C)n2C(C)C = > 1 µM
• COc1nc(-c2nc(Nc3ccc(N4CCOCC4=O)cn3)ncc2F)cc2c1nc(C)n2C1CCCC1O (stereo not shown) = > 1 µM
• COc1nc(-c2nc(Nc3ccc(N4CCOCC4=O)cn3)ncc2Cl)cc2c1nc(C)n2C(C)C = 0.1 to 1 µM
• COc1nc(-c2nc(NC3CCN(S(C)(=O)=O)CC3)ncc2F)cc2c1nc(C)n2C(C)C = 0.1 to 1 µM

###

pIC50 by entry:
Molecular target: CDK4/CyclinD1 (Homo sapiens, UniProt P11802)
Construct: purchased Thermofisher PR8064A
Sequence (P11802 whole entry): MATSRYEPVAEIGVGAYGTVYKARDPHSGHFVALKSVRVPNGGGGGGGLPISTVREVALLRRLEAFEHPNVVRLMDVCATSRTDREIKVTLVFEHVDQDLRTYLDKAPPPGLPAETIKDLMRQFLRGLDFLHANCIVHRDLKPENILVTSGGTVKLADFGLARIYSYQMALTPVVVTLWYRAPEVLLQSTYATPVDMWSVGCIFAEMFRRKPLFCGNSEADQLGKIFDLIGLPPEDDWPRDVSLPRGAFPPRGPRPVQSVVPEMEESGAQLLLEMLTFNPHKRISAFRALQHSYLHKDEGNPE
Sequence (P24385 whole entry partner): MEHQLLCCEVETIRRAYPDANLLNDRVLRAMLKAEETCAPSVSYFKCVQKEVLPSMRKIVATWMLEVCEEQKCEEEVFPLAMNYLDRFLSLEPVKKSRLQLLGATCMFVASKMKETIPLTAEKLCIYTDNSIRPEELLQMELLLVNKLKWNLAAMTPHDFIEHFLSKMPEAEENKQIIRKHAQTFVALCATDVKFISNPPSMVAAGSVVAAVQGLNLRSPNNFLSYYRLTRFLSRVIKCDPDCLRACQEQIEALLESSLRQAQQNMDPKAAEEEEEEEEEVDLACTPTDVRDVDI
Assay: Assay for inhibition of CDK4/CyclinD1 (Caliper microfluidic kinase assay)
Type: biochemical
Conditions: CDK4/CyclinD1, 200 μM ATP
pIC50: −log10 of the molar value.
quantity-name: pIC50

* CC(C)n1cnc2c(F)nc(-c3ccnc(Nc4ccc(N5CCCC(N)C5=O)cc4F)n3)cc21 (centres unmarked) | > 8.00
* CC(C)n1cnc2c(F)nc(-c3ccnc(Nc4ccc(N5CCN(CCF)CC5)cn4)n3)cc21 | > 8.00
* CNC1CCCN(c2ccc(Nc3nccc(-c4ccn5nc(C)c(C(C)C)c5c4)n3)cc2)C1=O (centres unmarked) | > 8.00
* CC(C)c1cnn2ccc(-c3ccnc(Nc4ccc(N5CCC(N6CC(F)C6)CC5=O)cn4)n3)cc12 (centres unmarked) | > 8.00
* CC1(C)COc2c(F)cc(-c3ccnc(Nc4ccc(N5CCCNC5=O)cn4)n3)cc21 | > 8.00
* CC(C)c1cnn2ccc(-c3ccnc(Nc4ccc(C(=O)N5CCC(N(C)C)CC5)cc4)n3)cc12 | > 8.00
* COc1nc(-c2ccnc(Nc3ccc(N4CCC(C)(N)CC4)cn3)n2)cc2c1ncn2C(C)C | > 8.00
* CC(C)n1cnc2c1CN(c1ccnc(Nc3ccc(N4CCC(N(C)C)CC4=O)cn3)n1)CC2 (centres unmarked) | > 8.00

###

// reported IC50 per item
Target: CDK2/CyclinE1 (Homo sapiens)
Construct: purchased SignalChem C29-18G
Assay: Assay for inhibition of CDK2/CyclinE1 (Caliper microfluidic kinase assay)
Format: biochemical
Settings: CDK2/CyclinE1; read-out: CDK2 IC50
quantity-name: IC50

* COc1nc(-c2ccnc(Nc3ccc(N4CCC(N(C)C)CC4=O)cn3)n2)cc2c1ncn2C(C)C (centres unmarked) [compound 91] | 100 to 1000 nM
* CCn1cnc2c(OC)nc(-c3nc(Nc4ccc(N5CCOCC5=O)cn4)ncc3F)cc21 [compound 84] | > 1000 nM
* COc1nc(-c2nc(Nc3ccc(N4CCC5(CCNC5=O)CC4)cn3)ncc2F)cc2c1nc(C)n2C(C)C [compound 90] | > 1000 nM
* COc1nc(-c2ccnc(Nc3ccc(N4CCCC(N(C)C)C4=O)cc3)n2)cc2c1ncn2C(C)C (centres unmarked) [compound 311] | 100 to 1000 nM
* COc1nc(-c2ccnc(Nc3ccc(N4CCC(N5CC(F)(F)C5)CC4=O)cn3)n2)cc2c1ncn2C(C)C (centres unmarked) [compound 315] | 100 to 1000 nM
* COc1nc(-c2ccnc(Nc3ccc(CN4CCC(F)C4)cn3)n2)cc2c1ncn2C(C)C (centres unmarked) [compound 76] | > 1000 nM
* COc1nc(-c2nc(Nc3ccc(N4CCOCC4=O)cn3)ncc2C)cc2c1nc(C)n2C(C)C [compound 75] | 100 to 1000 nM
* COc1nc(-c2ccnc(Nc3ccc(C(=O)N4CCC(NC5CC5)C4)cc3)n2)cc2c1ncn2C(C)C (centres unmarked) [compound 80] | < 10 nM
